Please go through the items and note down their viability, T/C.
Tested on: 935938-334-R-J1-PDC complex spheroid viability
Assay: Anticancer human tumor 935938-334-R-J1-PDC patient-derived small intestine adenocarcinoma cell line growth inhibition [POLQ]
Details: second compound 0.1 µM; first compound 0.316 µM; active compounds read low
Give bare numbers, in %.

// solved cases for viability, T/C follow
molecule: O=c1[nH]cc(F)c(=O)[nH]1 + Cc1cccc(N(C)C(=O)C2C(O)CCN2c2nc(C)cc(C(F)(F)F)c2C#N)c1
tested-on: 935938-334-R-J1-PDC complex spheroid viability
units-symbol: %
viability, T/C: 93
--
molecule: CCc1cc2c(N3CCc4c(cc(Cn5ccnc5)cc4-c4cn(C)nc4C(F)(F)F)C3=O)ccnc2c(OC)n1 + COC1C(OC(N)=O)C(O)C(Oc2ccc3c(O)c(NC(=O)c4ccc(O)c(CC=C(C)C)c4)c(=O)oc3c2C)OC1(C)C
tested-on: 935938-334-R-J1-PDC complex spheroid viability
units-symbol: %
viability, T/C: 64.6

I need viability, T/C for every entry listed below, if you could help.
1. COc1cc(C2c3cc4c(cc3C(OC3OC5COC(C)OC5C(O)C3O)C3COC(=O)C23)OCO4)cc(OC)c1O (stereo unspecified) + Cc1cccc(N(C)C(=O)C2C(O)CCN2c2nc(C)cc(C(F)(F)F)c2C#N)c1
2. CCc1cc2c(N3CCc4c(cc(Cn5ccnc5)cc4-c4cn(C)nc4C(F)(F)F)C3=O)cc(C)nc2c(OC)n1 + Cc1cccc(N(C)C(=O)C2C(O)CCN2c2nc(C)cc(C(F)(F)F)c2C#N)c1
3. CCc1cc2c(N3CCc4c(cc(Cn5ccnc5)cc4-c4cn(C)nc4C(F)(F)F)C3=O)ccnc2c(OC)n1 + Cc1cccc(N(C)C(=O)C2C(O)CCN2c2nc(C)cc(C(F)(F)F)c2C#N)c1
4. C#Cc1c(F)ccc2cc(O)cc(-c3ncc4c(N5CC6CCC(C5)N6)nc(OCC56CCCN5CC(F)C6)nc4c3F)c12 (stereo unspecified) + Cc1cccc(N(C)C(=O)C2C(O)CCN2c2nc(C)cc(C(F)(F)F)c2C#N)c1
5. CCc1cc2c(N3CCc4c(cc(Cn5ccnc5)cc4-c4cn(C)nc4C(F)(F)F)C3=O)cc(C)nc2c(OC)n1 + COC1C(OC(N)=O)C(O)C(Oc2ccc3c(O)c(NC(=O)c4ccc(O)c(CC=C(C)C)c4)c(=O)oc3c2C)OC1(C)C
6. O=c1[nH]cc(F)c(=O)[nH]1 + Nc1ccc(C#CCN(C(=O)Cc2ncc(C(F)(F)F)cc2C(F)(F)F)c2ccc(F)cc2)nn1

73.7
62.8
63.2
62
74.1
82.1

====

Can you tell me viability, T/C for the items I'm about to list?
Test system: 935938-334-R-J1-PDC complex spheroid viability
Experiment: Anticancer human tumor 935938-334-R-J1-PDC cell line growth inhibition [POLQ];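 note: spheroids exposed to drugs for seven days before viability read; 100% = DMSO vehicle control wells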
Details: second compound 0.0316 µM; first compound 10 µM; active compounds read low
Numbers only, in %.

compound: CCc1cc2c(N3CCc4c(cc(Cn5ccnc5)cc4-c4cn(C)nc4C(F)(F)F)C3=O)cc(C)nc2c(OC)n1 + Cc1cccc(N(C)C(=O)C2C(O)CCN2c2nc(C)cc(C(F)(F)F)c2C#N)c1
viability, T/C, %: 56.7

compound: Nc1ccn(C2OC(CO)C(O)C2(F)F)c(=O)n1 (stereo unspecified) + COC1C(OC(N)=O)C(O)C(Oc2ccc3c(O)c(NC(=O)c4ccc(O)c(CC=C(C)C)c4)c(=O)oc3c2C)OC1(C)C
viability, T/C, %: 14.1

compound: CC1COCCN1c1cc(-c2ccnn2C)c2ccnc(-c3ccn[nH]3)c2n1 (stereo unspecified) + COC1C(OC(N)=O)C(O)C(Oc2ccc3c(O)c(NC(=O)c4ccc(O)c(CC=C(C)C)c4)c(=O)oc3c2C)OC1(C)C
viability, T/C, %: 16.3

compound: O=c1[nH]cc(F)c(=O)[nH]1 + Cc1cccc(N(C)C(=O)C2C(O)CCN2c2nc(C)cc(C(F)(F)F)c2C#N)c1
viability, T/C, %: 56.1

compound: CCCS(=O)(=O)Nc1ccc(F)c(C(=O)c2c[nH]c3ncc(-c4ccc(Cl)cc4)cc23)c1F + Cc1cccc(N(C)C(=O)C2C(O)CCN2c2nc(C)cc(C(F)(F)F)c2C#N)c1
viability, T/C, %: 51

Next compound, viability, T/C to be filled in.
Field request: viability, T/C | item: C=CC(=O)N1CCN(c2nc(=O)n(-c3c(C)ccnc3C(C)C)c3nc(-c4c(O)cccc4F)c(F)cc23)C(C)C1 (stereo unspecified) + COC1C(OC(N)=O)C(O)C(Oc2ccc3c(O)c(NC(=O)c4ccc(O)c(CC=C(C)C)c4)c(=O)oc3c2C)OC1(C)C
111
